Source: patent US7795261B2

target: UniProt:P25103; assay: Signal transduction (ST), intracellular Ca++ (FLIPR), NK1 antagonistic activity; type: cell-based; settings: read-out: pIC50 NK1 (converted)
test.readout: IC50 (nM)

[
  {
    "compound": "CC(C)(C)C(=O)N1CC[C@H](N2CCN([C@H]3CCN(C(=O)c4cc(C(F)(F)F)cc(C(F)(F)F)c4)[C@H](Cc4ccc(Cl)c(Cl)c4)C3)CC2)C1",
    "IC50 [nM]": 3.98
  }
]

P. CN(C)CCN1CCC[C@H]1C(=O)N1CCC(N2CCN([C@H]3CCN(C(=O)c4cc(C(F)(F)F)cc(C(F)(F)F)c4)[C@H](Cc4ccccc4)C3)CC2)C1 (stereo partly drawn)
Q. O=C(C1CCOC1)N1CCC(N2CCN(C3CCN(C(=O)c4cc(C(F)(F)F)cc(C(F)(F)F)c4)C(Cc4ccc(F)c(F)c4)C3)CC2)C1 (single isomer, unassigned) [Compound 227]
Req: Hi there, can you help? I need to know whether P or Q has lower measured IC50. Return value: the label identifying the chosen record.
Resp: Q

###

molecular target: NK2 (Homo sapiens, UniProt P21452); test: Signal transduction (ST), intracellular Ca++ (FLIPR), NK2; type: cell-based; settings: read-out: pIC50 NK2 (converted)
Sequence (P21452 whole entry): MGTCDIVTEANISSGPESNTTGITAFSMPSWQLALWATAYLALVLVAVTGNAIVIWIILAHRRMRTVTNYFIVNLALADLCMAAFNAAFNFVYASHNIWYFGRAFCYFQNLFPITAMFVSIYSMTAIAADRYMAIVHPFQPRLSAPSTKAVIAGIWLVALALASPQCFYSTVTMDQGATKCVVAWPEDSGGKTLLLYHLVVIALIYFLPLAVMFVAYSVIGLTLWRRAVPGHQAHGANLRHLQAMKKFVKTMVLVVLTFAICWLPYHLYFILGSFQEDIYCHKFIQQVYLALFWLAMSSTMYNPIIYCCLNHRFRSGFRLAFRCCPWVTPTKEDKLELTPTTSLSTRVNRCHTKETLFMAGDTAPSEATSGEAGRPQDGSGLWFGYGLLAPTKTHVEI
test.readout: IC50 (µM)

A. Cc1cc(C(=O)N2CCC(N3CCN([C@H]4CCN(C(=O)c5cc(C(F)(F)F)cc(C(F)(F)F)c5)[C@H](Cc5ccccc5)C4)CC3)C2)n(C(C)(C)C)n1 (stereo partly shown) [Compound 27]
B. N#CN=C(N1CCCC1)N1CCC(N2CCN([C@H]3CCN(C(=O)c4cc(C(F)(F)F)cc(C(F)(F)F)c4)[C@H](Cc4ccccc4)C3)CC2)C1 (stereo partly shown) [Compound 302]
C. COc1ccc(C(=O)N2CCC(N3CCN([C@H]4CCN(C(=O)c5cc(C(F)(F)F)cc(C(F)(F)F)c5)[C@H](Cc5ccccc5)C4)CC3)C2)s1 (stereo partly shown) [Compound 350]
D. O=C(c1cnccn1)N1CC[C@H](N2CCN([C@H]3CCN(C(=O)c4cc(C(F)(F)F)cc(C(F)(F)F)c4)[C@H](Cc4ccc(Cl)c(Cl)c4)C3)CC2)C1 [Compound 323]
E. Cn1cccc(C(=O)N2CCC(N3CCN(C4CCN(C(=O)c5cc(C(F)(F)F)cc(C(F)(F)F)c5)C(Cc5ccc(F)c(F)c5)C4)CC3)C2)c1=O (single isomer, unassigned) [Compound 260]
Req: Sort the entries above by IC50, smallest first. # the answer lists labels in the order requested
Resp: E, A, D, B, C
(E: 0.398 µM, A: 0.631 µM, D: 1.26 µM, B: 2.51 µM, C: 5.01 µM)

###

molecular target: NK3 (Homo sapiens); experiment: Signal transduction (ST), intracellular Ca++ (FLIPR), NK3; format: cell-based; details: read-out: pIC50 NK3 (converted)
Sequence (P29371 whole entry): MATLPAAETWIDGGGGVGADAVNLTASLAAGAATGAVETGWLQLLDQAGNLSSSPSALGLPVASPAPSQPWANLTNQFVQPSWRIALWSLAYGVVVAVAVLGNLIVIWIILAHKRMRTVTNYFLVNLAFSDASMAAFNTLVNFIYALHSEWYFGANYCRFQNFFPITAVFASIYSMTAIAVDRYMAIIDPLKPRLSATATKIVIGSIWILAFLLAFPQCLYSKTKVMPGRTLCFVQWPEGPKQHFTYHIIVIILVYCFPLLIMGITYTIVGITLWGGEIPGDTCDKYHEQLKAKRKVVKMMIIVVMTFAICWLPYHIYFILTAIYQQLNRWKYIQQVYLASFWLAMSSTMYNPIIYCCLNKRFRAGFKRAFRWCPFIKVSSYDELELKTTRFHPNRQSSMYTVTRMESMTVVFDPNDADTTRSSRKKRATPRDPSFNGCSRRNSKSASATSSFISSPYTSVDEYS
test.readout: IC50 (µM)

a. O=C(c1ccoc1)N1CCC(N2CCN(C3CCN(C(=O)c4cc(C(F)(F)F)cc(C(F)(F)F)c4)C(Cc4ccc(F)c(F)c4)C3)CC2)C1 (single isomer, unassigned) [Compound 258]
b. O=C(c1ccco1)N1CC[C@@H](N2CCN([C@H]3CCN(C(=O)c4cc(C(F)(F)F)cc(C(F)(F)F)c4)[C@H](Cc4ccc(Cl)c(Cl)c4)C3)CC2)C1
c. COc1cccc(OC)c1C(=O)N1CCC(N2CCN([C@H]3CCN(C(=O)c4cc(C(F)(F)F)cc(C(F)(F)F)c4)[C@H](Cc4ccccc4)C3)CC2)C1 (some centres unmarked)
d. COc1ccc(S(=O)(=O)N2CCC(N3CCN([C@H]4CCN(C(=O)c5cc(C(F)(F)F)cc(C(F)(F)F)c5)[C@H](Cc5ccccc5)C4)CC3)C2)s1 (some centres unmarked)
e. O=C(c1cccs1)N1CCC(N2CCN(C3CCN(C(=O)c4cc(C(F)(F)F)cc(C(F)(F)F)c4)C(Cc4ccc(F)c(F)c4)C3)CC2)C1 (single isomer, unassigned) [Compound 232]
Req: Sort the entries above by IC50, smallest first. # the answer lists labels in the order requested
Resp: e, b, a, c, d

###

target: NK1 (Homo sapiens, UniProt P25103); assay: Signal transduction (ST), intracellular Ca++ (FLIPR), NK1 antagonistic activity; format: cell-based; details: read-out: pIC50 NK1 (converted)
Sequence (P25103 whole entry): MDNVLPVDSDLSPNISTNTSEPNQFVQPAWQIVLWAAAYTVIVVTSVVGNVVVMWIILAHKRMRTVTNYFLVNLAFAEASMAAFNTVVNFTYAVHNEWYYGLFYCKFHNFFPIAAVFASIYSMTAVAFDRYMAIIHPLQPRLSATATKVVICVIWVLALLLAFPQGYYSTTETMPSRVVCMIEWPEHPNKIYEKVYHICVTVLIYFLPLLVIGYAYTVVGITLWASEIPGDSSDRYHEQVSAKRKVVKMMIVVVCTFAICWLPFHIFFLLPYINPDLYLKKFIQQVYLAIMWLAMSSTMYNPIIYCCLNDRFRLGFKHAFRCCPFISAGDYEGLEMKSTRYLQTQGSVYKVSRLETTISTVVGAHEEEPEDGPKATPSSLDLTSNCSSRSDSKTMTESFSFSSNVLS
test.readout: IC50 (nM)

[
  {
    "compound": "Cn1cccc1C(=O)N1CCC(N2CCN([C@H]3CCN(C(=O)c4cc(C(F)(F)F)cc(C(F)(F)F)c4)[C@H](Cc4ccccc4)C3)CC2)C1 (stereo partly drawn)",
    "target.under.test": "NK1 (Homo sapiens, UniProt P25103)",
    "unit.info": "nM",
    "IC50": 25.1
  }
]

1. O=C(c1cc(Cl)sc1Cl)N1CCC(N2CCN([C@H]3CCN(C(=O)c4cc(C(F)(F)F)cc(C(F)(F)F)c4)[C@H](Cc4ccccc4)C3)CC2)C1 (stereo partly drawn)
2. O=C(C1CCOC1)N1CCC(N2CCN(C3CCN(C(=O)c4cc(C(F)(F)F)cc(C(F)(F)F)c4)C(Cc4ccc(F)c(F)c4)C3)CC2)C1 (single isomer, unassigned) [Compound 270]
Req: Select the item with the higher value of IC50 from the options 1 and 2 listed. Return value: the label identifying the chosen record.
Resp: 1
(1: 50.1 nM, 2: 3.16 nM)

###

Biological target: UniProt P25103
Test: Signal transduction (ST), intracellular Ca++ (FLIPR), NK1 antagonistic activity
Format: cell-based
Details: read-out: pIC50 NK1 (converted)
Procedure: This test evaluates in vitro functional NK1 antagonistic activity. For the measurements of intracellular Ca^++ concentrations the cells were grown on 96-well (black wall/transparent bottom) plates from Costar for 2 days until they reached confluence. […] The cells were preincubated with a concentration range of antagonists for 20 min at RT and Ca^++-signals after addition of the agonists were measured in a Fluorescence Image Plate Reader (FLIPR from Molecular Devices, Crawley, England). […]
test.readout: IC50 (µM)

Guide cases for IC50, answers given:
[
  {
    "compound": "Cn1cccc(C(=O)N2CCC(N3CCN(C4CCN(C(=O)c5cc(C(F)(F)F)cc(C(F)(F)F)c5)C(Cc5ccc(F)c(F)c5)C4)CC3)C2)c1=O (single isomer, unassigned) [Compound 260]",
    "target.under.test": "UniProt P25103",
    "IC50 [µM]": 0.0158
  },
  {
    "compound": "O=C(c1cc(C(F)(F)F)cc(C(F)(F)F)c1)N1CC[C@H](N2CCN(C3CCN(S(=O)(=O)c4sccc4COCc4ccccc4)C3)CC2)C[C@H]1Cc1ccccc1 (some centres unmarked) [Compound 292]",
    "target.under.test": "UniProt P25103",
    "IC50 [µM]": 0.1
  }
]

A. Cc1cc(C(=O)N2CCC(N3CCN([C@H]4CCN(C(=O)c5cc(C(F)(F)F)cc(C(F)(F)F)c5)[C@H](Cc5ccccc5)C4)CC3)C2)n(C(C)(C)C)n1 (some centres unmarked) [Compound 27]
B. O=C(c1c(Cl)cccc1Cl)N1CC[C@H](N2CCN([C@@H]3CCN(C(=O)c4cc(C(F)(F)F)cc(C(F)(F)F)c4)[C@@H](Cc4ccc(Cl)c(Cl)c4)C3)CC2)C1 [Compound 246]
C. O=C(C1CCNC1)N1CCC(N2CCN([C@H]3CCN(C(=O)c4cc(C(F)(F)F)cc(C(F)(F)F)c4)[C@H](Cc4ccccc4)C3)CC2)C1 (some centres unmarked) [Compound 235]
D. Cn1cccc1C(=O)N1CCC(N2CCN(C3CCN(C(=O)c4cc(C(F)(F)F)cc(C(F)(F)F)c4)C(Cc4ccc(F)c(F)c4)C3)CC2)C1 (single isomer, unassigned) [Compound 367]
E. Cc1onc(-c2c(Cl)cccc2Cl)c1C(=O)N1CCC(N2CCN([C@H]3CCN(C(=O)c4cc(C(F)(F)F)cc(C(F)(F)F)c4)[C@H](Cc4ccccc4)C3)CC2)C1 (some centres unmarked) [Compound 49]
Req: Rank the 5 compounds: largest IC50 first, smallest last. # the answer lists labels in the order requested
Resp: B, C, E, A, D

###

biological target: NK1 (Homo sapiens); assay: Signal transduction (ST), intracellular Ca++ (FLIPR), NK1 antagonistic activity; type: cell-based; details: read-out: pIC50 NK1 (converted)
test.readout: IC50 (nM)

Guide cases for IC50, answers given:
[
  {
    "compound": "O=C(c1cccnc1Cl)N1CCC(N2CCN([C@H]3CCN(C(=O)c4cc(C(F)(F)F)cc(C(F)(F)F)c4)[C@H](Cc4ccccc4)C3)CC2)C1 (stereo partly drawn)",
    "recorded.measurement": 7.94
  },
  {
    "compound": "O=C(C(=O)N1CCC(N2CCN(C3CCN(C(=O)c4cc(C(F)(F)F)cc(C(F)(F)F)c4)C(Cc4ccccc4)C3)CC2)C1)c1ccco1 (single isomer, unassigned) [Compound 191]",
    "recorded.measurement": 15.8
  },
  {
    "compound": "O=C(c1ccoc1)N1CCC(N2CCN([C@H]3CCN(C(=O)c4cc(C(F)(F)F)cc(C(F)(F)F)c4)[C@H](Cc4ccccc4)C3)CC2)C1 (stereo partly drawn)",
    "recorded.measurement": 20
  }
]

1. O=C(c1cc(C(F)(F)F)cc(C(F)(F)F)c1)N1CC[C@H](N2CCN([C@@H]3CCNC3)CC2)C[C@H]1Cc1ccccc1
2. O=C(c1sccc1COCc1ccccc1)N1CCC(N2CCN([C@H]3CCN(C(=O)c4cc(C(F)(F)F)cc(C(F)(F)F)c4)[C@H](Cc4ccccc4)C3)CC2)C1 (stereo partly drawn)
Req: Select the item with the higher value of IC50 from the options 1 and 2 listed. Return value: the label identifying the chosen record.
Resp: 1
(1: 39.8 nM, 2: 25.1 nM)

A. O=C(c1ccsc1)N1CCC(N2CCN(C3CCN(C(=O)c4cc(C(F)(F)F)cc(C(F)(F)F)c4)C(Cc4ccccc4)C3)CC2)C1 (single isomer, unassigned) [Compound 40]
B. O=C(c1cc(C(F)(F)F)cc(C(F)(F)F)c1)N1CC[C@H](N2CCN([C@H]3CCNC3)CC2)C[C@H]1Cc1ccccc1
C. CC(=O)N1CCC(N2CCN([C@H]3CCN(C(=O)c4cc(C(F)(F)F)cc(C(F)(F)F)c4)[C@H](Cc4ccccc4)C3)CC2)C1 (stereo partly drawn)
Req: Rank the 3 compounds: largest IC50 first, smallest last. # the answer lists labels in the order requested
Resp: B, C, A

A. O=C(c1cc(C(F)(F)F)cc(C(F)(F)F)c1)N1CC[C@H](N2CCN(C3CCN(S(=O)(=O)c4sccc4CO)C3)CC2)C[C@H]1Cc1ccccc1 (stereo partly drawn)
B. O=C(C1CC1)N1CCC(N2CCN([C@H]3CCN(C(=O)c4cc(C(F)(F)F)cc(C(F)(F)F)c4)[C@H](Cc4ccccc4)C3)CC2)C1 (stereo partly drawn)
C. O=C(C1CCOC1)N1CCC(N2CCN(C3CCN(C(=O)c4cc(C(F)(F)F)cc(C(F)(F)F)c4)C(Cc4ccc(F)c(F)c4)C3)CC2)C1 (single isomer, unassigned) [Compound 269]
Req: Rank the 3 compounds: largest IC50 first, smallest last. # the answer lists labels in the order requested
Resp: B, A, C
(B: 50.1 nM, A: 7.94 nM, C: 3.98 nM)
